Data origin: paper PMC5540273

Tested on: RSK3(Kin.Dom.2-C-terminal);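 also: KINOMEscan kinase panel screen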
Construct: gene RPS6KA2
Assay conditions: concentration: 1 μM, replicates: in singlicate; n = 1
Test readout: %Inh (%)

> print(dat)
                                    compound  test.readout  readout.units  recorded.measurement
 1  COc1cc2c(Nc3cccc(NC(=O)c4ccccc4)c3)ncnc2cc1OCCCN1CCOCC1          %Inh              %                    11
 2       CC(C)(C)c1ccc(-n2cnc3c(N)ncnc32)cc1          %Inh              %                     0
 3  COC(=O)c1c(-c2ccccc2)c2cc(Cl)ccc2c(=O)n1Cc1ccc(S(C)(=O)=O)cc1          %Inh              %                     6
 4  CCc1nc(-c2cccc(N(C)S(=O)(=O)c3ccccc3)c2)c(-c2ccnc(Nc3ccc(N4CCN(C(C)=O)CC4)nc3)n2)s1          %Inh              %                    23
 5  CNc1nccc(-c2c(-c3ccc(F)cc3)ncn2CCCN2CCOCC2)n1          %Inh              %                     0
 6  Fc1ccc(Nc2nccc(-c3c(-c4ccc(Cl)cc4)nn4ncccc34)n2)cc1F          %Inh              %                     0
 7   Clc1cc(Nc2ncnc3cc[nH]c23)ccc1OCc1ccccn1          %Inh              %                    20
 8  O=C(Nc1n[nH]c2nc(-c3ccco3)c(Br)cc12)c1ccc(CN2CCCC2)cc1.O=C(O)[C@H](O)[C@@H](O)C(=O)O          %Inh              %                     0
 9  Nc1nccc2scc(-c3ccc4c(c3)CCN4C(=O)Cc3cc(F)ccc3F)c12          %Inh              %                     0
10  Cl.Cl.c1ccc(-c2cc3ccncc3cc2OC2CCNCC2)cc1          %Inh              %                     6
11  Cc1cc(N2CCC(NS(=O)(=O)c3ccc(F)cc3)CC2)nc(Nc2cccc(C#N)c2)n1.O=C(O)C(F)(F)F          %Inh              %                     0
12  CN1CCC(n2cnc(-c3ccc(F)cc3)c2-c2ccnc(NC3CCNCC3)n2)CC1          %Inh              %                    30
13  Cl.c1ccc(Cn2ncc3cc(Nc4ncnc5ccccc45)ccc32)cc1          %Inh              %                     0
14  Cl.Cn1ccc(-c2cccc(Nc3ccnc4cc(-c5nccs5)ccc34)c2)n1          %Inh              %                    13
15  CC(C)(C)OC(=O)NC1CCCN(c2cc(-c3ccc4c(N)n[nH]c4c3)nc(N)n2)C1 (stereo not shown)          %Inh              %                     0
16  CC(C)N1CCC(n2cnc(-c3ccc(F)cc3)c2-c2ccnc(N)n2)CC1          %Inh              %                     4
17  Cn1cc(-c2ccc3c(c2)CCN3C(=O)Cc2cccc(C(F)(F)F)c2)c2c(N)ncnc21          %Inh              %                     0
18  O=C(NCCCN1CCCC1=O)c1cnc(NCc2cc(Cl)ccc2Cl)nc1NC1CCNCC1          %Inh              %                     8
19  Clc1ccc(-c2cc(-c3c[nH]nc3-c3ccccn3)ccn2)cc1          %Inh              %                     0
20  Cc1ccc(O)cc1Nc1cc(C(F)(F)F)nc2ccc(-c3ccncc3)cc12          %Inh              %                     5
21  CS(=O)(=O)CCNCc1nc(-c2ccc3ncnc(Nc4ccc(OCc5cccc(F)c5)c(Cl)c4)c3c2)cs1.Cl          %Inh              %                    11
22                CCn1c(-c2ccncc2)nc2cnccc21          %Inh              %                    40
23  COc1ccc(Nc2nccc(N3CCC(NC(=O)c4cccc(NC(C)=O)c4)C3)n2)cc1 (stereo not shown)          %Inh              %                     6
24  O=C(Nc1ccccc1F)NC1CCN(c2ccnc(Nc3ccc(F)cc3)n2)C1 (stereo not shown)          %Inh              %                     0
25  Cc1cccc(-c2nc(Nc3ccc4[nH]nnc4c3)c3ccccc3n2)n1          %Inh              %                    12
26  Nc1nc(-c2ccc3c(N)n[nH]c3c2)cc(N2CCC[C@@H](C(=O)Nc3ccccc3)C2)n1.O=C(O)C(F)(F)F.O=C(O)C(F)(F)F          %Inh              %                     0
27  FC(F)(F)c1ccc(-c2cc(-c3c[nH]nc3-c3ccccn3)ccn2)cc1          %Inh              %                     5
28  Cn1ccc2ncnc(Nc3ccc(Oc4cccc(Cl)c4)c(Cl)c3)c21          %Inh              %                    10
29  FC(F)(F)c1ccc(-c2nn3ncccc3c2-c2ccnc(Nc3cccc(C(F)(F)F)c3)n2)cc1          %Inh              %                     0
30  Fc1cccc(COc2ccc(Nc3ncnc4cc[nH]c34)cc2Cl)c1          %Inh              %                    26
31  COc1ccc(-c2oc3ncnc(N)c3c2-c2ccc(OC)cc2)cc1          %Inh              %                     0
32  COC(=O)c1cccc(NC(=O)NCCNc2ccnc(Nc3ccc(F)cc3)n2)c1          %Inh              %                     0
33  O=C(c1ccc(-c2cc(-c3c[nH]nc3-c3ccccn3)ccn2)cc1)N1CCCC1          %Inh              %                    12
34  CCc1nc(-c2cccc(C)c2)c(-c2ccnc(NC(=O)c3ccccc3)c2)s1          %Inh              %                     5
